pEC50 values, listed per item
# Test system: HIVIIIB
# EXPERIMENTAL_DETAILS: Antiviral Activity: anti-HIV activity in MT4 cells infected with HIVIIIB (MTT)
# Type: cell-based
# CONDITION_SUMMARY: Human immunodeficiency virus 1, 120 h, MOI 0.003, 5 days, n=four duplicate determinations
pEC50: −log10 of the molar value.

COMPOUND	pEC50
Cc1c(O)cccc1C(=O)N[C@@H](Cc1ccccc1)[C@@H](O)C[C@H](Cc1ccccc1)NC(=O)O[C@@H]1CO[C@@H]2OCC[C@@H]21 [Example 60]	5.95
Cc1cccc(C)c1OCC(=O)N[C@@H](Cc1ccccc1)[C@@H](O)C[C@H](Cc1ccccc1)NC(=O)O[C@H]1CO[C@H]2OCC[C@H]21 [Example 6]	7.21
O=C(N[C@@H](Cc1ccccc1)[C@@H](O)C[C@H](Cc1ccccc1)NC(=O)c1ccc(O)cc1)O[C@H]1CO[C@H]2OCC[C@H]21 [Example 55]	7.96
Cc1nc(CN(C)C(=O)N[C@H](C(=O)N[C@@H](Cc2ccccc2)C[C@H](O)[C@H](Cc2ccccc2)NC(=O)O[C@H]2CO[C@H]3OCC[C@H]32)C(C)C)cs1 [Example 49]	7.38
Cc1cc(N)cc(C)c1OCC(=O)N[C@@H](Cc1ccccc1)[C@@H](O)C[C@H](Cc1ccccc1)NC(=O)O[C@H]1CO[C@H]2OCC[C@H]21 [Example 3]	8.10
Cc1cccc(CO)c1OCC(=O)N[C@@H](Cc1ccccc1)C[C@H](O)[C@H](Cc1ccccc1)NC(=O)O[C@H]1CO[C@H]2OCC[C@H]21 [Example 7]	7.43
CC(C)c1nc(COC(=O)N[C@@H](C(=O)N[C@@H](Cc2ccccc2)C[C@H](O)[C@H](Cc2ccccc2)NC(=O)OC2COC3OCCC23)C(C)C)cs1 (stereo partly shown) [Example 36]	7.52

----------
# System: uninfected MT4 cells
# EXPERIMENTAL_DETAILS: Cytotoxicity in uninfected MT4 cells (MTT)
# Assay type: cell-based
# CONDITION_SUMMARY: 5 days, n=four duplicate determinations, read-out: CTC50 (50% cytotoxicity concentration)
VALUE_KIND: CC50

In [3]: df
Out[3]:
                                   compound  value_kind       val
0  Cc1ccc(OCC(=O)N[C@@H](Cc2ccccc2)C[C@H](O)[C@H](Cc2ccccc2)NC(=O)O[C@H]2CO[C@H]3OCC[C@H]32)c(C)n1 [Example 10]        CC50  > 100 µM

----------
# TGT: HIV-1 protease (Human immunodeficiency virus type 1 group M subtype B, UniProt P04585)
# EXPERIMENTAL_DETAILS: Fluorogenic Assay for Screening Inhibitors of HIV Protease
# CONDITION_SUMMARY: pH 4.5
Use 70% as the dividing line for inhibition at 0.0005 µM, with the line itself on the 1.0 side and lower values as 0.0.

COMPOUND	LABEL_VALUE
O=C(N[C@@H](Cc1ccccc1)[C@@H](O)C[C@H](Cc1ccccc1)NC(=O)O[C@@H]1CO[C@@H]2OCC[C@@H]21)OCc1cncs1	0.0
CC(C)c1nc(CN(C)C(=O)N[C@@H](C(=O)N[C@@H](Cc2ccccc2)C[C@H](O)[C@H](Cc2ccccc2)NC(=O)OC2COC3OCCC23)C(C)C)cs1 (stereo partly shown)	0.0
Cc1cccc(CO)c1OCC(=O)N[C@@H](Cc1ccccc1)C[C@H](O)[C@H](Cc1ccccc1)NC(=O)O[C@H]1CO[C@H]2OCC[C@H]21	1.0
CC(C)c1nc(COC(=O)N[C@H](C(=O)N[C@@H](Cc2ccccc2)C[C@H](O)[C@H](Cc2ccccc2)NC(=O)OC2COC3OCCC23)C(C)C)cs1 (stereo partly shown)	1.0
Cc1cc2[nH]cnc2c(C)c1OCC(=O)N[C@@H](Cc1ccccc1)C[C@H](O)[C@H](Cc1ccccc1)NC(=O)O[C@H]1CO[C@H]2OCC[C@H]21	1.0
Cc1cccc(C)c1OCC(=O)N[C@@H](Cc1ccccc1)C[C@H](O)[C@H](Cc1ccccc1)NC(=O)O[C@H]1CO[C@H]2OCC[C@H]21	1.0
O=C(N[C@@H](Cc1ccccc1)[C@@H](O)C[C@H](Cc1ccccc1)NC(=O)c1ccc(O)cc1)O[C@H]1CO[C@H]2OCC[C@H]21	1.0
O=C(N[C@@H](Cc1ccccc1)C[C@H](O)[C@H](Cc1ccccc1)NC(=O)O[C@H]1CO[C@H]2OCC[C@H]21)O[C@H]1CO[C@H]2OCC[C@H]21	0.0
O=C(N[C@@H](Cc1ccccc1)[C@@H](O)C[C@H](Cc1ccccc1)NC(=O)c1ccc(O)cc1Cl)O[C@H]1CO[C@H]2OCC[C@H]21	1.0
CC(C)c1nc(CN(C)C(=O)N[C@H](C(=O)N[C@@H](Cc2ccccc2)[C@@H](O)C[C@H](Cc2ccccc2)NC(=O)O[C@H]2CO[C@H]3OCC[C@H]32)C(C)C)cs1	1.0
COc1cccc(C)c1OCC(=O)N[C@@H](Cc1ccccc1)C[C@H](O)[C@H](Cc1ccccc1)NC(=O)O[C@H]1CO[C@H]2OCC[C@H]21	1.0
Cc1cc2[nH]c(=O)[nH]c2c(C)c1OCC(=O)N[C@@H](Cc1ccccc1)C[C@H](O)[C@H](Cc1ccccc1)NC(=O)O[C@H]1CO[C@H]2OCC[C@H]21	1.0
CC(C)[C@H](NC(=O)N(C)Cc1cncs1)C(=O)N[C@@H](Cc1ccccc1)C[C@H](O)[C@H](Cc1ccccc1)NC(=O)O[C@H]1CO[C@H]2OCC[C@H]21	0.0
Cc1cc(C)c(OCC(=O)N[C@@H](Cc2ccccc2)C[C@H](O)[C@H](Cc2ccccc2)NC(=O)O[C@H]2CO[C@H]3OCC[C@H]32)c(C)c1N	1.0
CC(C)[C@H](NC(=O)OCc1cncs1)C(=O)N[C@@H](Cc1ccccc1)C[C@H](O)[C@H](Cc1ccccc1)NC(=O)O[C@H]1CO[C@H]2OCC[C@H]21	1.0
Cc1c(O)cccc1C(=O)N[C@@H](Cc1ccccc1)[C@@H](O)C[C@H](Cc1ccccc1)NC(=O)O[C@H]1CO[C@H]2OCC[C@H]21	0.0
Cc1nc(CN(C)C(=O)N[C@H](C(=O)N[C@@H](Cc2ccccc2)C[C@H](O)[C@H](Cc2ccccc2)NC(=O)O[C@H]2CO[C@H]3OCC[C@H]32)C(C)C)cs1	1.0
O=C(N[C@@H](Cc1ccccc1)[C@@H](O)C[C@H](Cc1ccccc1)NC(=O)OC1COC2OCCC12)OCc1cncs1 (stereo partly shown)	0.0
Cc1cccc(C)c1OCC(=O)N[C@@H](Cc1ccccc1)[C@@H](O)C[C@H](Cc1ccccc1)NC(=O)O[C@@H]1CCS(=O)(=O)C1(C)C	1.0

----------
# EXPERIMENTAL_DETAILS: Cytotoxicity in uninfected MT4 cells (MTT)
# Assay type: cell-based
# CONDITION_SUMMARY: human, 5 days, n=four duplicate determinations, read-out: CTC50 (50% cytotoxicity concentration)
VALUE_KIND: CC50 at 120 h (µM)

                                   compound  comparator   val
0  CC(C)c1nc(CN(C)C(=O)N[C@H](C(=O)N[C@@H](Cc2ccccc2)C[C@H](O)[C@H](Cc2ccccc2)NC(=O)O[C@H]2CCOC2)C(C)C)cs1           =  56.2
1  Cc1c(O)cccc1C(=O)N[C@@H](Cc1ccccc1)[C@@H](O)C[C@H](Cc1ccccc1)NC(=O)O[C@H]1CO[C@H]2OCC[C@H]21           >   100
2  O=C(N[C@@H](Cc1ccccc1)[C@@H](O)C[C@H](Cc1ccccc1)NC(=O)c1ccc(O)cc1Cl)O[C@H]1CO[C@H]2OCC[C@H]21           =  80.9
3  O=C(N[C@@H](Cc1ccccc1)[C@@H](O)C[C@H](Cc1ccccc1)NC(=O)O[C@@H]1CO[C@@H]2OCC[C@@H]21)O[C@H]1CO[C@H]2OCC[C@H]21           >   100
4  Cc1cc2[nH]c(=O)[nH]c2c(C)c1OCC(=O)N[C@@H](Cc1ccccc1)C[C@H](O)[C@H](Cc1ccccc1)NC(=O)O[C@H]1CO[C@H]2OCC[C@H]21           >   100
5  Cc1cccc(C)c1OCC(=O)N[C@@H](Cc1ccccc1)[C@@H](O)C[C@H](Cc1ccccc1)NC(=O)OC1CCCSC1 (mixture of isomers)           =  53.3

----------
# Test system: HIVIIIB
# EXPERIMENTAL_DETAILS: Antiviral Activity: anti-HIV activity in MT4 cells infected with HIVIIIB (MTT)
# Type: cell-based
# CONDITION_SUMMARY: Human immunodeficiency virus 1, 120 h, MOI 0.003, 5 days, n=four duplicate determinations
pEC50: −log10 of the molar value.

MOLECULE	TGT	pEC50
CC(C)[C@H](NC(=O)OCc1cncs1)C(=O)N[C@@H](Cc1ccccc1)C[C@H](O)[C@H](Cc1ccccc1)NC(=O)O[C@H]1CO[C@H]2OCC[C@H]21 [Example 42]	HIVIIIB	7.15
O=C(N[C@@H](Cc1ccccc1)[C@@H](O)C[C@H](Cc1ccccc1)NC(=O)O[C@@H]1CO[C@@H]2OCC[C@@H]21)O[C@H]1CO[C@H]2OCC[C@H]21 [Example 22]	HIVIIIB	6.97
Cc1nc(CN(C)C(=O)N[C@H](C(=O)N[C@@H](Cc2ccccc2)C[C@H](O)[C@H](Cc2ccccc2)NC(=O)OC2COC3OCCC23)C(C)C)cs1 (some centres unmarked) [Example 52]	HIVIIIB	7.14
O=C(N[C@@H](Cc1ccccc1)[C@@H](O)C[C@H](Cc1ccccc1)NC(=O)O[C@@H]1CO[C@@H]2OCC[C@@H]21)OCc1cncs1 [Example 38]	HIVIIIB	6.85
CC(C)c1nc(CN(C)C(=O)N[C@H](C(=O)N[C@@H](Cc2ccccc2)C[C@H](O)[C@H](Cc2ccccc2)NC(=O)OC2COC3OCCC23)C(C)C)cs1 (some centres unmarked) [Example 34]	HIVIIIB	8.05
